assay: PubChem AID 1554
statedConditions: BJeLR (HRASV12) viability, CellTiter-Glo ATP luminescence, 48 h; active compounds read high; concentration not given here
About 520 (0.17%) of roughly 300,000 compounds were called active. Only a selection was taken, and actives are over-represented in it overall.

| compound | inhibition |
| --- | --- |
| CC(=O)c1ccc(N2Cc3ccccc3C2)cc1 | -5.06% (inactive) |
| O=C(CN1C(=O)c2cccnc2Oc2ccc(Cl)cc21)NCCc1ccccc1 | 2.42% (inactive) |
| COc1cc(C(CCN2CCN(c3ccccc3)CC2)c2c(OC)cc(OC)c3ccc(=O)oc23)cc(OC)c1OC (stereo not given) | -7.5% (inactive) |
| CC1CCCC(N2CCN(C(=O)c3ccc(F)cc3)CC2)C1 (stereo not given) | -5.87% (inactive) |
| COc1ccc(S(=O)(=O)N2CCCCCC2)cc1C(=O)N(C)Cc1cccc(OC)c1OC | -3.35% (inactive) |
| COc1cc(NS(=O)(=O)c2ccc(NC(=O)CN3C(=O)c4ccccc4C3=O)cc2)ncn1 | -1.96% (inactive) |
| CC(C)Cc1nnc(NC(=O)CN2C(=O)NC3(CCCCC3)C2=O)s1 | 4.35% (inactive) |
| CCOc1ccc(OCCSc2nc3ccccc3n2CC(=O)O)cc1 | -3.19% (inactive) |
| COc1ccc(NC(=O)CN(C)C(=O)c2ccc(NC3CC3)c([N+](=O)[O-])c2)cc1 | -1.94% (inactive) |
| N#Cc1cccc(CN2CCC(=O)N([C@H](CO)c3ccccc3)CC2)c1 | 4.84% (inactive) |
